experiment: Membrane Permeability Test, parallel artificial membrane permeability assay (PAMPA); format: in vitro ADME; details: pH 7.4, pH7.4, 37° C., read-out: Pe (pH7.4)
ATTRIBUTE MEASURED: Papp at 4 h (×10⁻⁶ cm/s)
Give just the number in ×10⁻⁶ cm/s; leave the unit off.

CNC(C(=O)N[C@H](C(=O)N(C)[C@H](/C=C(\C)C(=O)N[C@H](CCC(=O)O)C(=O)O)C(C)C)C(C)(C)C)C(C)(C)c1ccc(C(=O)NCCN2C(=O)C=CC2=O)cc1 (some centres unmarked) ... 1.2

Query: So what's the measured Papp at 4 h for this one? CN[C@H](C(=O)N[C@H](C(=O)N(C)[C@H](/C=C(\C)C(=O)N[C@H](CCC(=O)NCCN1C(=O)C=CC1=O)C(=O)O)C(C)C)C(C)(C)C)C(C)(C)c1cccc(C)c1
Result: 4.9

###

Recorded Papp at 4 h values for a group of molecules are listed next.
test: Membrane Permeability Test, parallel artificial membrane permeability assay (PAMPA); assay type: in vitro ADME; conditions: pH 7.4, pH7.4, 37° C., read-out: Pe (pH7.4)
Give just the number in ×10⁻⁶ cm/s; leave the unit off.

Solved entries:
CN[C@@H](C(=O)N[C@H](C(=O)N(C)[C@H](/C=C(\C)C(=O)N[C@H](CCC(=O)NCCN1C(=O)C=CC1=O)C(=O)O)C(C)C)C(C)(C)C)C(C)(C)c1cccc(Br)c1 ... 4
CN[C@H](C(=O)N[C@H](C(=O)N(C)[C@H](/C=C(\C)C(=O)N[C@H](CCC(=O)NCCN1C(=O)C=CC1=O)C(=O)O)C(C)C)C(C)(C)C)C(C)(C)c1cccc(C#N)c1 ... 0.8

Next item in the queue.
Query: So what's the measured Papp at 4 h for this one? CN[C@H](C(=O)N[C@H](C(=O)N(C)[C@H](/C=C(\C)C(=O)N[C@H](CCC(=O)NCCN1C(=O)C=CC1=O)C(=O)O)C(C)C)C(C)(C)C)C(C)(C)c1cccc(F)c1
Result: 0.6

###

assay: Membrane Permeability Test, parallel artificial membrane permeability assay (PAMPA); format: in vitro ADME; conditions: pH 7.4, pH7.4, 37° C., read-out: Pe (pH7.4)
Recorded Papp at 4 h values for a group of molecules are listed next.

CN[C@H](C(=O)N[C@H](C(=O)N(C)[C@H](/C=C(\C)C(=O)N[C@H](CCC(=O)NCCN1C(=O)C=CC1=O)C(=O)O)C(C)C)C(C)(C)C)C(C)(C)c1ccc2ccccc2c1 ... < 0.1 ×10⁻⁶ cm/s
CN[C@H](C(=O)N[C@H](C(=O)N(C)[C@H](/C=C(\C)C(=O)N[C@@H](CC(=O)NCCN1C(=O)C=CC1=O)C(=O)O)C(C)C)C(C)(C)C)C(C)(C)c1cn(C)c2ccccc12 ... < 0.1 ×10⁻⁶ cm/s
CN[C@H](C(=O)N[C@H](C(=O)N(C)[C@H](/C=C(\C)C(=O)N[C@H](CCC(=O)NCCCCN1C(=O)C=CC1=O)C(=O)O)C(C)C)C(C)(C)C)C(C)(C)c1ccccc1 ... < 0.1 ×10⁻⁶ cm/s

Query: So what's the measured Papp at 4 h for this one? CN[C@H](C(=O)N[C@H](C(=O)N(C)[C@H](/C=C(\C)C(=O)N[C@H](CC(=O)O)C(=O)NCCN1C(=O)C=CC1=O)C(C)C)C(C)(C)C)C(C)(C)c1cn(C)c2ccccc12
Result: < 0.1 ×10⁻⁶ cm/s

Query: Consider next the molecule C/C(=C\[C@H](C(C)C)N(C)C(=O)[C@@H](NC(=O)[C@H]1CCCCN1C(C)C)C(C)(C)C)C(=O)N[C@H](CCC(=O)NCCN1C(=O)C=CC1=O)C(=O)O in the same way.
Result: 2 ×10⁻⁶ cm/s

Query: Consider next the molecule CN[C@H](C(=O)N[C@H](C(=O)N(C)[C@H](/C=C(\C)C(=O)N[C@H](CCC(=O)NCCN1C(=O)C=CC1=O)C(=O)O)C(C)C)C(C)(C)C)C(C)(C)c1cccc(C(F)(F)F)c1 in the same way.
Result: 1 ×10⁻⁶ cm/s

Query: Consider next the molecule CN[C@H](C(=O)N[C@H](C(=O)N(C)[C@H](/C=C(\C)C(=O)N[C@@H](CCC(=O)NCCN1C(=O)C=CC1=O)C(=O)O)C(C)C)C(C)(C)C)C(C)(C)c1ccccc1 in the same way.
Result: < 0.1 ×10⁻⁶ cm/s
